- Assay System: NEP (Homo sapiens, UniProt P08473)
- Construct: gift of Prof; Adriana Carmona, Department of Biophysics, UNIFESP-EPM
- Sequence (P08473 2-750): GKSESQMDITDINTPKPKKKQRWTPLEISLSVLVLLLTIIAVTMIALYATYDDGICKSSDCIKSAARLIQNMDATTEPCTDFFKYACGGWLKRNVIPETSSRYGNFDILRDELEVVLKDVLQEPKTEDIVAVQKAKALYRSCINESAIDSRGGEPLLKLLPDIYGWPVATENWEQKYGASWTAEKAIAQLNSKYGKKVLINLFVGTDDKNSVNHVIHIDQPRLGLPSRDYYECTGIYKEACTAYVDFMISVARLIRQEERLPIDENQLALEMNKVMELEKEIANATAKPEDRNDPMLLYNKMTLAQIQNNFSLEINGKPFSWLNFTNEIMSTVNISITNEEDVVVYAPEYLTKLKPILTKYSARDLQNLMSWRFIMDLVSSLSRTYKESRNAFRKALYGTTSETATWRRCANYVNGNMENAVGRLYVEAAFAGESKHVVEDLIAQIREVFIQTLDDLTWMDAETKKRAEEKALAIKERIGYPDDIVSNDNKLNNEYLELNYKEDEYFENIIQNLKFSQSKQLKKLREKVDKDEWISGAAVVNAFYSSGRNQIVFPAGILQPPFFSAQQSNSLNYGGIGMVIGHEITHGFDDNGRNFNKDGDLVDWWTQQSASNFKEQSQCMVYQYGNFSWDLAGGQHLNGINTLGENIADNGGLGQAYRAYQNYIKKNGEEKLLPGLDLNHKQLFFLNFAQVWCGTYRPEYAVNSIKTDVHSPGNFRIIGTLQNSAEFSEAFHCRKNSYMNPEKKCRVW
- Procedure Text: Characterization of NEP inhibition (Ki and mechanism, Lineweaver-Burk)
- Assay type: biochemical
No end group written: not given here.
Experimental Endpoint: Ki
Numeric answer plus unit only.

Request body: readout Ki, system NEP (Homo sapiens, UniProt P08473), query AEIDFSGIPEDIIKQIKETNAKPPA [TsHpt-I] . Return the value. 4.35 µM

###

- System: NEP
- Procedure Text: in vitro
- Assay type: in vitro ADME
- Applied Conditions: human, isolated enzyme neprilysin; 30 µM peptide, NEP 1.5 ng, Tris HCl 50 mM, pH 7.5, 4 h, 37 °C, RP-HPLC C18, UV 214 nm; read-out: hydrolysis products after incubation with NEP
No end group written: not given here.
metabolised at 4 h, 30 µM listing for selected sequences.

Given the sequence AEIDFSGIPEDIIKQIKETNAKPPA [TsHpt-I] , what is its reported metabolised at 4 h, 30 µM? ≤ 5%

# evaluate next
If you can, please state the reported metabolised at 4 h, 30 µM value of AEIDFSGIPEDIIKEIKETNAKPPA [TsHpt-II] . ≤ 5%
